# Assay Remarks: physchem
# Test Settings: HPLC, Ascentis Express RP Amide column, pH 7.4, eLogD, experimental
Listed here: items and their measured chromatographic logD.

[
  {
    "Molecule": "[2H]C([2H])([2H])Oc1ncccc1S(=O)(=O)N(Cc1ccc(F)cc1)Cc1ccc(F)cc1",
    "chromatographic logD": 3.5
  },
  {
    "Molecule": "COc1ccc(C#N)cc1S(=O)(=O)N(Cc1ccc(F)cc1)Cc1ccccn1",
    "chromatographic logD": 3.6
  },
  {
    "Molecule": "CCCN(Cc1ccc(F)cc1)S(=O)(=O)c1cc([S+](C)[O-])ccc1OC (stereo not drawn)",
    "chromatographic logD": 3.1
  },
  {
    "Molecule": "CN(C)c1ncccc1S(=O)(=O)N(Cc1ccc(F)cc1)Cc1ccc(F)cc1",
    "chromatographic logD": 4.6
  },
  {
    "Molecule": "COc1ccc(S(N)(=O)=O)cc1S(=O)(=O)NCc1ccccc1",
    "chromatographic logD": 1.1
  },
  {
    "Molecule": "COc1ccc(OC)c(S(=O)(=O)N(Cc2ccc(F)cc2)c2ccc(F)cn2)c1",
    "chromatographic logD": 3.5
  }
]

* * *

# Assay Remarks: in vitro
# Test Settings: human, HFF-1 cells
Listed here: items and their measured CC50.

[
  {
    "Molecule": "COc1ccc(OC)c(S(=O)(=O)N(Cc2ccc(F)cc2)c2ccc(F)cc2)c1 [DNDI0003371170]",
    "CC50": "30.7 µM"
  },
  {
    "Molecule": "O=S(=O)(c1cccnc1OC(F)F)N(Cc1ccc(F)cc1)Cc1ccc(F)cc1 [DNDI0003371167]",
    "CC50": "> 64 µM"
  },
  {
    "Molecule": "O=C1c2ccccc2S(=O)(=O)N(Cc2ccccc2)C1Cc1ccccc1 (stereo not drawn) [DNDI0003370098]",
    "CC50": "> 64 µM"
  },
  {
    "Molecule": "Nc1ncccc1S(=O)(=O)N(Cc1ccc(F)cc1)Cc1ccc(F)cc1 [DNDI0003371163]",
    "CC50": "52.2 µM"
  },
  {
    "Molecule": "COc1ccc(C#N)cc1S(=O)(=O)N(Cc1ccc(F)cc1)Cc1ccc(C#N)cc1 [DNDI0003371171]",
    "CC50": "> 64 µM"
  },
  {
    "Molecule": "COc1ccc(OC)c(S(=O)(=O)N(Cc2ncccn2)Cc2ncccn2)c1 [DNDI0003370115]",
    "CC50": "> 64 µM"
  },
  {
    "Molecule": "COc1ncccc1S(=O)(=O)N(Cc1ccc(F)cc1)Cc1ccc(F)cc1 [DNDI0003371169]",
    "CC50": "> 64 µM"
  },
  {
    "Molecule": "COc1ccc(CN2CCCC2)cc1S(=O)(=O)N(Cc1ccc(F)cc1)Cc1ccc(F)cc1 [DNDI0003370114]",
    "CC50": "13.8 µM"
  },
  {
    "Molecule": "COc1ccc(C#N)cc1S(=O)(=O)N(Cc1ccc(F)cc1)Cc1oc(C)nc1C [DNDI0003370421]",
    "CC50": "1.91 µM"
  }
]

* * *

# Assay Remarks: in vitro
# Test Settings: human

[
  {
    "Compound": "CCC(Cc1ccccc1)Sc1nc(C)cc(C)c1C#N (centres unmarked)",
    "CC50 at 3 days": "> 64 µM"
  },
  {
    "Compound": "COc1cc(S(=O)(=O)NCc2ccccc2)c(OC)cc1C",
    "CC50 at 3 days": "> 32 µM"
  },
  {
    "Compound": "CCOCCOc1ncccc1S(=O)(=O)NCc1ccc(F)cc1",
    "CC50 at 3 days": "> 64 µM"
  },
  {
    "Compound": "CCCCOc1ncccc1S(=O)(=O)NCc1ccc(F)cc1",
    "CC50 at 3 days": "> 64 µM"
  },
  {
    "Compound": "COc1ccc(S(=O)(=O)N(CC(=O)NC2CC2)Cc2ccccc2)cc1C",
    "CC50 at 3 days": "> 55.4 µM"
  }
]
